# Assayed Target: 5-hydroxytryptamine receptor 1A (Homo sapiens, UniProt P08908)
# Sequence (P08908 whole entry): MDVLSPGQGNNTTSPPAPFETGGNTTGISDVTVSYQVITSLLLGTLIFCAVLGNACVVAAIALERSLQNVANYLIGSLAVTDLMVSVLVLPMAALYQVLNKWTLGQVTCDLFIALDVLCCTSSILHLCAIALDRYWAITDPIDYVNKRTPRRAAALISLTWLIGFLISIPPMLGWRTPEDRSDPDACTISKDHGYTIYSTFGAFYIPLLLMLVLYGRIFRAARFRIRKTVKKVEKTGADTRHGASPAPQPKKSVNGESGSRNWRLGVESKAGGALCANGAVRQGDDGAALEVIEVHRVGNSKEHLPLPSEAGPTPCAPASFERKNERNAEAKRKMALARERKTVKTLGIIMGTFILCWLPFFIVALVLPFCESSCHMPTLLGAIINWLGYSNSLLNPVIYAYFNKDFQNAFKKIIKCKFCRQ
Metric Name: Ki (nM)

a. COc1cc(F)ccc1N1CCN(CCC(O)c2csc3ccccc23)CC1 (stereo unspecified)
b. OC(CCN1CCN(c2ccc(Cl)cc2)CC1)c1ccc2ccccc2c1 (stereo unspecified)
c. COc1ccccc1N1CCN(CCC(=O)c2cc(C)sc2C)CC1
d. Cc1cc(C(O)CCN2CCN(c3ccccc3O)CC2)c(C)s1 (stereo unspecified)
Order these by Ki, descending, and give the full ranking. Please reply with the labels ordered as requested. Many thanks.
b, a, d, c
(b: 5010 nM, a: 501 nM, d: 91.2 nM, c: 5.01 nM)

P. O=C(CCN1CCN(c2ccc(Cl)cc2)CC1)c1ccc2ccccc2c1
Q. OC(CCN1CCN(c2ccccc2Cl)CC1)c1ccccc1 (stereo unspecified)
Hi, I'm comparing two records. Which one has the lower Ki, P or Q ? Choose, then provide that item's label.
Q

The measured values listed here are drawn from ChEMBL document CHEMBL1781889.
